Where do the numbers come from? From the RNAGym collection of RNA variant scans (doi:10.7554/elife.90254).

self-cleavage reference
B1: LINE1-full (parent)
chain: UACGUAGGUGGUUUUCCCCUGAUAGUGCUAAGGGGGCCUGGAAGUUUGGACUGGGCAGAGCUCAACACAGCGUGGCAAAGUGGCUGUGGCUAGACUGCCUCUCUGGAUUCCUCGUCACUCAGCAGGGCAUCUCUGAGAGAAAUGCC

# Variants of: B1
# Method: self-cleavage, relative activity (ratio to wild type); higher = more cleavage; in vitro, sequencing; the parent is a self-cleaving ribozyme
Reply with the value as a number alone.

Examples with answers:
>  <Entry sequence>
UACGUAGGUGGCUUUCCCCUGAUAGUGCUAAGGGGGCCUGGAAGUUUGGACUGGGCAGAGCUCAACACAGCGUGGCAAAGUGGCUGUGGCCAGACUGCCUCUCUGGAUUCCUCGUCACUCAGCAGGGCAUCUCUGAGAGAAAUGCC [U12C U91C]

>  <Recorded value>
0.92

$$$$
>  <Entry sequence>
UACGUAGGUGGUUUUCCCCUGAUAGUGCUAAGGAGGCCUGGAAGUUUGGACUGGGCAGAGCUCAACACAGCGUGGCAAAGUGGCUGUGGCUAGACUGCCUCUCUGGAUUCCUCGUCACUCAGCAGAGCAUCUCUGAGAGAAAUGCC [G34A G126A]

>  <Recorded value>
1.68

$$$$

// next entry
Enquiry: For the variant UACGUAGGUGGUUUUCCCCUGAUAGUGCUAAGGGGGCCUGGAAGUUUGGACUGGGCAGAGCUCAACACAGCGUGGCAAAGUGGCUGUGGCUAGACUGCCUCUCAGGAUUCCUCGCCACUCAGCAGGGCAUCUCUGAGAGAAAUGCC [U104A U115C] , give its measured self-cleavage value.
Return: 1.42
